Each item that follows carries a reported percentage block of cellular response over baseline, 75.
Biological target: T2R75 (TAS2R46) (Homo sapiens, UniProt P59540)
Construct: expressed in transfected cells; host or cells: cells expressing a promiscuous G protein (e.g., G16g44)
Sequence (P59540 1-309): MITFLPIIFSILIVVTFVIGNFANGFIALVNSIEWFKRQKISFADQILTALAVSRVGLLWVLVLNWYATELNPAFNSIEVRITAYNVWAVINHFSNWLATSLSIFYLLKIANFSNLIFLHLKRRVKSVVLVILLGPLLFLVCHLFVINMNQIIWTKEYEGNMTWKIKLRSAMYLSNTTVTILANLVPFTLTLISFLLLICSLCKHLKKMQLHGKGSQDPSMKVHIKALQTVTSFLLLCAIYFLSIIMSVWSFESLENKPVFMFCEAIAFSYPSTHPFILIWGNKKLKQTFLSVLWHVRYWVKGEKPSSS
Assay: FLIPR calcium assay, block of bitter agonist response, T2R75
Format: cell-based
Settings: unsaturated fatty acid concentration of 200 µM, cells stimulated with known bitter agonist

Solved entries (count: 3):
CC(C)=CCCC(C)=CC(=O)O [Compound 128] = 40%
C=CCCCCCCCC(=O)O [Compound 117] = 40%
C=CCCCCCCCCC(=O)O [Compound 118] = 75%

q: What value of percentage block of cellular response over baseline, 75 has been reported for the following molecule? CC(C)=CCC/C(C)=C/C(=O)O [Compound 129]
a: 50%

q: Now consider CC(C)=CCCC(C)CC(=O)O (centres unmarked) [Compound 127] and answer again.
a: 35%

---

Target: T2R08 (TAS2R08) (Homo sapiens, UniProt Q9NYW2)
Construct: expressed in transfected cells; host or cells: cells expressing a promiscuous G protein (e.g., G16g44)
Sequence (Q9NYW2 1-309): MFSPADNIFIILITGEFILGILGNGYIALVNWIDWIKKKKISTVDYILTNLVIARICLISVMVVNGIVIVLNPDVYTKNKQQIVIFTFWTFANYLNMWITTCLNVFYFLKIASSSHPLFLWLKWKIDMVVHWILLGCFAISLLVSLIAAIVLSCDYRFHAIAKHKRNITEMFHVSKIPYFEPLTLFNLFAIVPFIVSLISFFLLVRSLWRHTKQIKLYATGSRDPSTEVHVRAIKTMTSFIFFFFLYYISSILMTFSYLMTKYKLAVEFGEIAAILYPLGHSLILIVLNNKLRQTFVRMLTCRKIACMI
Experiment: FLIPR calcium assay, block of bitter agonist response, T2R08
Assay type: cell-based
Conditions: unsaturated fatty acid concentration of 200 µM, cells stimulated with known bitter agonist, read-out: percentage block of cellular response over baseline, 08
Procedure: Cells expressing a promiscuous […] (e.g., G16g44) were transfected with vectors encoding 18 functional bitter receptor cDNAs, with one receptor per transfection. The cells were transfected directly in 384-well format high-density plates and incubated for 28 hours. Later, cells were loaded with the Ca-specific dye Fluo4-AM. […] Changes in intracellular fluorescence are recorded using a FLIPR instrument. […]
ENDPOINT: inhibition at 200 µM

Some entries whose results are on file:
CC(C)/C=C/CCCCC(=O)O = > 25%
C=CCCCCCCC(=O)O = > 40%
CCCCCCCC/C=C/C(=O)O = > 70%
C=CCCCCCCCCC(=O)O = 65%

q: Request the reported inhibition at 200 µM associated with "CCC/C=C/C(=O)O"
a: > 25%

q: Try this compound next: "C=CCCCCCCCC(=O)O"
a: > 55%

q: Try the compound "CCCCCC/C=C\CCCC(=O)O"
a: > 60%

q: Same read-out for "CCCCCCCCC/C=C/C(=O)O" ?
a: > 70%

q: Please do the same for "C=CCCCCCCCCCCC(=O)O" as well.
a: 50%

q: Here is the next compound: "CCCCCC/C=C/C(=O)O"
a: > 40%

q: Now the compound "CCCCCCC/C=C/C(=O)O"
a: > 55%

q: Try this compound next: "CC(C)=CCCC(C)=CC(=O)O"
a: > 25%

---

inhibition at 200 µM overview
Biological target: T2R10 (TAS2R10) (Homo sapiens, UniProt Q9NYW0)
Construct: expressed in transfected cells; host or cells: cells expressing a promiscuous G protein (e.g., G16g44)
Sequence (Q9NYW0 1-307): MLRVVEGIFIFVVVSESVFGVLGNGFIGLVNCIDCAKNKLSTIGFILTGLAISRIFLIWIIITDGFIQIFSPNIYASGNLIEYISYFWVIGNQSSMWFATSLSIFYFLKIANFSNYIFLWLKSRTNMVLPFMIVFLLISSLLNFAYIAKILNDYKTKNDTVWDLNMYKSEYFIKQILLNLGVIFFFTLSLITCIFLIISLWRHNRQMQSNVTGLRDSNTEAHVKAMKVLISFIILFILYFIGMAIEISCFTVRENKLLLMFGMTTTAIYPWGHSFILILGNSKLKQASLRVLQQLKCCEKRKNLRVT
Experiment: FLIPR calcium assay, block of bitter agonist response, T2R10
Type: cell-based
Conditions: unsaturated fatty acid concentration of 200 µM, cells stimulated with known bitter agonist, read-out: percentage block of cellular response over baseline, 10
Protocol: Cells expressing a promiscuous […] (e.g., G16g44) were transfected with vectors encoding 18 functional bitter receptor cDNAs, with one receptor per transfection. The cells were transfected directly in 384-well format high-density plates and incubated for 28 hours. Later, cells were loaded with the Ca-specific dye Fluo4-AM. […] Changes in intracellular fluorescence are recorded using a FLIPR instrument. […]

CCCCCCCCC/C=C/C(=O)O [Compound 107] = > 95%

q: Quick one: inhibition at 200 µM of CCC/C=C/C(=O)O [Compound 101] ?
a: > 25%

---

Molecular target: T2R54 (TAS2R39 (Homo sapiens, UniProt P59534))
Construct: expressed in transfected cells; host or cells: cells expressing a promiscuous G protein (e.g., G16g44)
Sequence (P59534 whole entry): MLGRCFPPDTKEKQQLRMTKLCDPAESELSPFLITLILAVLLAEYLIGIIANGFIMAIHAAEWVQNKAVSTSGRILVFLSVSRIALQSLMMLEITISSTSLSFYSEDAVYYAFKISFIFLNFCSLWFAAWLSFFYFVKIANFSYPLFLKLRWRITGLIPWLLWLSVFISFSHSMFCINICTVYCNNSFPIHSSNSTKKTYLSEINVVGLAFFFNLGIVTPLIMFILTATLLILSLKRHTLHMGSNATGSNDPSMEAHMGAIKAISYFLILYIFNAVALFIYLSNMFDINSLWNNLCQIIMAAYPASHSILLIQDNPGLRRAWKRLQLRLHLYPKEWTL
Experiment: FLIPR calcium assay, block of bitter agonist response, T2R54
Assay type: cell-based
Settings: unsaturated fatty acid concentration of 200 µM, cells stimulated with known bitter agonist
# percentage block of cellular response over baseline, 54 per entry

Solved entries (count: 3):
CC(C)=CCCC(C)=CC(=O)O = >80%
CC(C)=CCCC(C)CC(=O)O (centres unmarked) = >90%
C=CCCCCCCCC(=O)O = >80%

q: What is its percentage block of cellular response over baseline, 54 for T2R54 (TAS2R39 (Homo sapiens, UniProt P59534))? Entry: "CC(C)=CCC/C(C)=C/C(=O)O"
a: 90%

q: Another compound: "C=CCCCCCCCCC(=O)O"
a: >80%

---

Overview of recorded inhibition at 200 µM for various molecules
Biological target: T2R01 (TAS2R01) (Homo sapiens, UniProt Q9NYW7)
Construct: expressed in transfected cells; host or cells: cells expressing a promiscuous G protein (e.g., G16g44)
Sequence (Q9NYW7 whole entry): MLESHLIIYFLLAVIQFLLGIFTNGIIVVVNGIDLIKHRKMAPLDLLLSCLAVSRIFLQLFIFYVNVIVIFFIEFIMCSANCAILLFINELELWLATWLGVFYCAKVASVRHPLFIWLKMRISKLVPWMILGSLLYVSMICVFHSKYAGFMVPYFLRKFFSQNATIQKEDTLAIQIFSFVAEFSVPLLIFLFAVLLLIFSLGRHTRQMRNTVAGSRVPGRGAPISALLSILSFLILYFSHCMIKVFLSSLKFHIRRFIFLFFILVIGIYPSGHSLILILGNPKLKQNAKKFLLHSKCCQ
Test: FLIPR calcium assay, block of bitter agonist response, T2R01
Type: cell-based
Conditions: unsaturated fatty acid concentration of 200 µM, cells stimulated with known bitter agonist, read-out: percentage block of cellular response over baseline, 01

Please review the following examples before continuing.
C=CCCCCCCCCC(=O)O = > 70%
CC(C)=CCCC(C)CC(=O)O (stereo not drawn) = > 30%
CCCCCCC/C=C/C(=O)O = > 60%
CCCCCC/C=C/C(=O)O = > 35%
C=CCCCCCCCCCCC(=O)O = > 50%

Alright, here's another molecule for you.
q: Requested field: inhibition at 200 µM. Item: "C=CCCCCCCC(=O)O"
a: > 25%

---

Recorded inhibition at 200 µM values for a group of molecules are listed next.
Molecular target: T2R10 (TAS2R10) (Homo sapiens, UniProt Q9NYW0)
Construct: expressed in transfected cells; host or cells: cells expressing a promiscuous G protein (e.g., G16g44)
Sequence (Q9NYW0 1-307): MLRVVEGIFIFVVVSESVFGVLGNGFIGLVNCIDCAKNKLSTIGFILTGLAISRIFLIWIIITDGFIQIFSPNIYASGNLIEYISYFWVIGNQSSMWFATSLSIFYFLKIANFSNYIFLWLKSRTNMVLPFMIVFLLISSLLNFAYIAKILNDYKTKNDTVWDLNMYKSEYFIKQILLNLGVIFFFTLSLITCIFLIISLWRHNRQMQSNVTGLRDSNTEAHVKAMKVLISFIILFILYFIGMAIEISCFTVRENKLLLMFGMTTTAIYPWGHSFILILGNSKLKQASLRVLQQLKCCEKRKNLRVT
Experiment: FLIPR calcium assay, block of bitter agonist response, T2R10
Assay type: cell-based
Details: unsaturated fatty acid concentration of 200 µM, cells stimulated with known bitter agonist, read-out: percentage block of cellular response over baseline, 10

These recorded examples may help you get a feel for the data.
CCCCCC/C=C/C(=O)O [Compound 104] = > 60%
C=CCCCCCCCC(=O)O [Compound 117] = > 70%
C=CCCCCCCCCC(=O)O [Compound 118] = > 75%
CCCCCCC/C=C/C(=O)O [Compound 105] = > 95%

q: Any idea what its inhibition at 200 µM is? The molecule is CCCCCCCC/C=C/C(=O)O [Compound 106]
a: > 95%

q: And for CC(C)=CCCC(C)=CC(=O)O [Compound 128] ?
a: > 90%

q: Repeat with C=CCCCCCCCCCCC(=O)O [Compound 120]
a: > 95%

q: Also C=CCCCCCCC(=O)O [Compound 116] , if possible.
a: > 35%

q: Now this one: CC(C)=CCCC(C)CC(=O)O (stereo not shown) [Compound 127]
a: 50%
